tested-target: Glutamate receptor ionotropic, NMDA 1 (Rattus norvegicus, UniProt P35439)
protocol-description: Inhibition of [3H]glycine to glycine binding site, associated with the N-methyl-D-aspartate glutamate receptor 1 in crude synaptic membranes prepared from adult rat cerebral cortex.
pKi: −log10 of the molar value.
Binary call on pKi: Fulfilled from 8 upward, Not fulfilled beneath that.

{"smiles": "O=C(/C=C/c1c(C(=O)O)[nH]c2cc(Cl)cc(Cl)c12)Nc1cccc([N+](=O)[O-])c1F", "classification": "Fulfilled"}
{"smiles": "O=C(/C=C/c1c(C(=O)O)[nH]c2cc(Cl)cc(Cl)c12)Nc1ccc(Cl)c([N+](=O)[O-])c1", "classification": "Not fulfilled"}

Pending compound:
Problem: Given the entry Nc1ccccc1NC(=O)/C=C/c1c(C(=O)O)[nH]c2cc(Cl)cc(Cl)c12 , answer whether its pKi meets or surpasses 8.
Result: Fulfilled

====

Listed next: entries and their corresponding log10 Ki.
tested-target: Glutamate receptor ionotropic, NMDA 1 (Rattus norvegicus, UniProt P35439)
protocol-description: Inhibition of [3H]glycine to glycine binding site, associated with the N-methyl-D-aspartate glutamate receptor 1 in crude synaptic membranes prepared from adult rat cerebral cortex.
In our notation, the value equals log10 of Ki in nM.

{"smiles": "CC(C)(C)OC(=O)/C=C/c1c(C(=O)O)[nH]c2cc(Cl)cc(Cl)c12", "parameter": "log10 Ki", "result": 2.70}

Record O=C(/C=C/c1c(C(=O)O)[nH]c2cc(Cl)cc(Cl)c12)Nc1cccc(O)c1 . Reported log10 Ki: 0.60

Record CC(C)c1ccccc1NC(=O)/C=C/c1c(C(=O)O)[nH]c2cc(Cl)cc(Cl)c12 . Reported log10 Ki: 1.70

Record NC(=O)Nc1ccc(NC(=O)/C=C/c2c(C(=O)O)[nH]c3cc(Cl)cc(Cl)c23)cc1 . Reported log10 Ki: 0.20

Record O=C(O)/C=C/c1c(C(=O)[O-])[nH]c2cc(Cl)cc(Cl)c12.[Na+] . Reported log10 Ki: 1.30

Record COc1ccc(NC(=O)/C=C/c2c(C(=O)O)[nH]c3cc(Cl)cc(Cl)c23)c(C)c1 . Reported log10 Ki: 1.30

Record O=C(/C=C/c1c(C(=O)O)[nH]c2cc(Cl)cc(Cl)c12)Nc1ccccc1[N+](=O)[O-] . Reported log10 Ki: 1.40

Record O=c1[nH]c2cc(Cl)ccc2c(O)c1-c1cccc(Oc2ccccc2)c1 . Reported log10 Ki: 0.00
